Values compiled from patent US10189794B2.

Target: FGFR4 in MDA-MB-453 cells (Homo sapiens (Human), UniProt P22455, Y367C)
Sequence (P22455 22-802 Y367C): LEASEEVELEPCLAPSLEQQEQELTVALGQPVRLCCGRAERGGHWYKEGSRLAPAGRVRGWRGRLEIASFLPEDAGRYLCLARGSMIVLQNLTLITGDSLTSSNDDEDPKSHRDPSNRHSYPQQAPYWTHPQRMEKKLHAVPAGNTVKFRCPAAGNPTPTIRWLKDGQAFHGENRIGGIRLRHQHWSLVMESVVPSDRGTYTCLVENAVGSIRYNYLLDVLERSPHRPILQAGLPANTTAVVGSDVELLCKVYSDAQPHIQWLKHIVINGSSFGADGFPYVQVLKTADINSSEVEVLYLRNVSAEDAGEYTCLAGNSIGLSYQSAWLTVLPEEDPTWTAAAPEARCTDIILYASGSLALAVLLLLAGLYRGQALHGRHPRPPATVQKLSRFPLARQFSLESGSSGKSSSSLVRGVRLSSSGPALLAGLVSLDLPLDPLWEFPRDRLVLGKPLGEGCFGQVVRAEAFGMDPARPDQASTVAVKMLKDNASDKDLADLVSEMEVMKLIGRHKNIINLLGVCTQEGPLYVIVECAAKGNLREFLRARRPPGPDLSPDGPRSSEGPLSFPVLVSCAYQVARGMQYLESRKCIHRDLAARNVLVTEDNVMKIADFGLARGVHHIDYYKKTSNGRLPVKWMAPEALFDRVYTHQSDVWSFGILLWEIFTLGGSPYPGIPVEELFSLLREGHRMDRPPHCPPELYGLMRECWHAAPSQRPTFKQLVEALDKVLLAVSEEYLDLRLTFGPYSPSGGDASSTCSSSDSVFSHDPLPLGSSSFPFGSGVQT
Assay: Target occupancy assay with biotinylated covalent probe I-127
Settings: MDA-MB-453 lysate; 2 μM biotinylated probe I-127
Protocol: In order to assess free FGFR4 protein a biotinylated covalent probe was utilized. […] The reaction was incubated for 2 hr at room temperature. The samples and probe mixture were transferred to a FGFR4-coated MSD plate for 2 hr at room temperature. MSD signals were obtained with an anti-streptavidin Sulfo-tag (Meso Scale) antibody for 1 hr at room temperature. […]
Here, each record is paired with measured EC50 data.

Sample records with EC50:
[[record]]
structure = "C=CC(=O)Nc1cc(N2CCN(CC)CC2)ccc1Nc1ncc2c(n1)N(C)C(=O)N(c1cc(OC)cc(OC)c1)C2"
readout_value = "101 to 500 nM"

[[record]]
structure = "C=CC(=O)Nc1cc(N2CCOCC2)ccc1Nc1ncc2c(n1)N(C)C(=O)N(c1cc(OC)cc(OC)c1)C2"
readout_value = "101 to 500 nM"


Entry `C=CC(=O)Nc1ccccc1Nc1ncc2c(n1)N(Cc1cccc(N)c1)C(=O)N(c1c(Cl)c(OC)cc(OC)c1Cl)C2` : EC50 on FGFR4 in MDA-MB-453 cells (Homo sapiens (Human), UniProt P22455, Y367C) = < 100 nM
